All figures here come from paper PMC4336329.

- study.system: human ether-à-go-go-related gene (hERG) potassium channel (human)
- Sequence (Q12809 whole entry, looked up): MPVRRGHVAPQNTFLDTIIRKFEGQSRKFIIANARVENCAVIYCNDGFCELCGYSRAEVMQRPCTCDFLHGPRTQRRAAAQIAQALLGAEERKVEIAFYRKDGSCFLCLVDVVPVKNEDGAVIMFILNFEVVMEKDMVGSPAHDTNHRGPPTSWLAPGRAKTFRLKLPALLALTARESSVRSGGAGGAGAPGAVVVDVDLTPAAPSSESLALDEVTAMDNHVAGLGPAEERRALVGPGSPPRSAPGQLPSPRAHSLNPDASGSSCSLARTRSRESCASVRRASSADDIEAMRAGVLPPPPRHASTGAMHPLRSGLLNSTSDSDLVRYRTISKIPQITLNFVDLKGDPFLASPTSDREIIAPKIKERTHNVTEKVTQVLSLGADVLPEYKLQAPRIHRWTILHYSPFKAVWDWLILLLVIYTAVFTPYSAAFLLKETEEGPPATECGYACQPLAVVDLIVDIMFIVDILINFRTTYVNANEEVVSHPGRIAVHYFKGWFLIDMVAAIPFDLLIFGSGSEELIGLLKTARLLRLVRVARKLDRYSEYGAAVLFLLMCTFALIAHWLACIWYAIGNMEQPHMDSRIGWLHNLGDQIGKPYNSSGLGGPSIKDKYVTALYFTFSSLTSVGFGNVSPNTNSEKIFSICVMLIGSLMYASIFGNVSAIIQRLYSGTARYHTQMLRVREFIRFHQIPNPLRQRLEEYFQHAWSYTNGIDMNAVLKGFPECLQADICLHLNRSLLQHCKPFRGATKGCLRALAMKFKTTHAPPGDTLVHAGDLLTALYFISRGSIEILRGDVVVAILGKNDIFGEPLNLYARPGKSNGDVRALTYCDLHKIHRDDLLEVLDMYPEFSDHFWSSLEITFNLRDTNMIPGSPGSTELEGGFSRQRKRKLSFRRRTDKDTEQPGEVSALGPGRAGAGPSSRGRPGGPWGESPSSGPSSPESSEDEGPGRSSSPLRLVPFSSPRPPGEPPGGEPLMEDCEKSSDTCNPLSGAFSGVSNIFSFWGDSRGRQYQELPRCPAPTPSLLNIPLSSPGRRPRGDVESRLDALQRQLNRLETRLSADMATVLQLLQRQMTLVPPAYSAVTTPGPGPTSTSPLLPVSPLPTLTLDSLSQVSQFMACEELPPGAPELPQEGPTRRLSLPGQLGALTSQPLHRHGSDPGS
- run.description: primary screen, population patch clamp on CHO cells stably expressing hERG; higher = less effect of the substance
- Excerpt: Briefly, Chinese hamster ovary (CHO) cells stably expressing the hERG channel were dislodged from tissue culture flasks and dispensed into PPC plates. […] Small molecule effects on hERG current density were quantified by […].
Screen size: about 310,000 compounds; about 2,200 (0.71%) showed an effect of 50% or more. The effect is printed as a negative number. For the sample, strong results were picked, then their nearest neighbours and some compounds at random.
measured.property: hERG current change (%, negative = inhibition) at 1uM

response.value for N=c1c(C(=O)NCCc2ccccc2)cc2c(=O)n3ccccc3nc2n1Cc1ccco1 (field: hERG current change (%, negative = inhibition) at 1uM) = -67.5%

Entry CC(=O)N1CCN(CC(=O)Nc2cc([N+](=O)[O-])ccc2Cl)CC1 , hERG current change (%, negative = inhibition) at 1uM reported as 1.54%

Noted for Cc1ccc(NC(=O)COc2ccc3oc4c(c3c2)CCCC4)nc1 : its hERG current change (%, negative = inhibition) at 1uM reads 2.88%

Measured hERG current change (%, negative = inhibition) at 1uM, O=C(NCc1ccccc1)C(c1ccco1)N(C(=O)c1csnn1)C1CC1 (stereo not shown) : 11.6%

So for COc1ccc(CN2CCN(CC(=O)Nc3ccccc3C(=O)NC3CC3)CC2)cc1F , the logged hERG current change (%, negative = inhibition) at 1uM turned out to be -99.6%

In plain terms, N=c1c(C(=O)NCc2ccco2)cc2c(=O)n3ccccc3nc2n1Cc1ccccc1 has a documented hERG current change (%, negative = inhibition) at 1uM of -81.6%

Reported hERG current change (%, negative = inhibition) at 1uM of CC(=O)N1CCN(CC(=O)Nc2ccc([N+](=O)[O-])cc2Br)CC1 : -60.4%

// hERG current change (%, negative = inhibition) at 1uM value for COc1ccccc1OCC(=O)Nc1ccccc1C(=O)NC1CC1 : 1.98%

# molecule COc1cc(C)c(CN2CCN(CC(=O)Nc3ccccc3C(=O)NC3CC3)CC2)cc1OC ; its hERG current change (%, negative = inhibition) at 1uM = -87.6%

Data point: Cc1ccc(Cn2c(=N)c(C(=O)NCc3ccco3)cc3c(=O)n4ccccc4nc32)cc1 ; hERG current change (%, negative = inhibition) at 1uM = -67.9%

// recorded hERG current change (%, negative = inhibition) at 1uM for O=C(CN1CCN(S(=O)(=O)c2ccc(F)c(F)c2)CC1)Nc1ccccc1C(=O)NC1CC1 : -23.7%

Please fill in: hERG current change (%, negative = inhibition) at 1uM reported for Cc1cc(=O)n2nc(N3CCCC(C(=O)NCCC4=CCCCC4)C3)sc2n1 (stereo not shown) = -4.44%

Lab note: measured hERG current change (%, negative = inhibition) at 1uM of Cc1ccc(CNC(=O)c2cc3c(=O)n4ccccc4nc3n(Cc3ccco3)c2=N)cc1 was -38.1%

Recorded hERG current change (%, negative = inhibition) at 1uM (molecule CN1CCN(CC(=O)Nc2ccc([N+](=O)[O-])cc2Br)CC1 ): -55.8%

Measured hERG current change (%, negative = inhibition) at 1uM of COc1ccc(OC)c(NC(=O)CN2CCC(NC(=O)c3ccccc3C)CC2)c1 : -4.31%

Record CC(/C=N/n1c(-c2ccco2)n[nH]c1=S)=C\c1ccco1 , field hERG current change (%, negative = inhibition) at 1uM: 13.9%

Entry CCOc1ccccc1N1CCN(CC(=O)Nc2ccccc2C(=O)NC2CC2)CC1 — recorded hERG current change (%, negative = inhibition) at 1uM = -23.5%

Value of hERG current change (%, negative = inhibition) at 1uM reported for the molecule COc1ccc(F)cc1CN1CCN(CC(=O)Nc2ccccc2C(=O)NC2CC2)CC1 is -88.8%

For O=C(CN1CCN(c2ccccc2O)CC1)Nc1ccc([N+](=O)[O-])cc1Br the molecule record lists hERG current change (%, negative = inhibition) at 1uM as 7.54%
